For each of the compounds below, state its viability, T/C.
# System: 377384-186-R-J1-PDC complex spheroid viability;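 note: spheroids exposed to compounds for seven days before readout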
# assay: Anticancer human tumor 377384-186-R-J1-PDC patient-derived pancreatic carcinoma cell line growth inhibition [RAS]
# measurement-setup: compound 0.00316 µM; stronger effect = lower value
# Excerpt: RAS pathway inhibitors in Combinations in Complex Spheroids A high-throughput screen of multi-cell type tumor spheroids was designed to identify active combinations of RAS pathway inhibitors and targeted small molecules. Complex spheroids include a stromal component modeled by human endothelial cells (HUVEC) and fibroblasts modeled by human mesenchymal stem cells (MSCs). […] Compounds. […] If the clinical Cmax for an agent had not been determined, the highest concentration tested was 10 microM. […]

Value lookup for viability, T/C; key = C=CC(=O)Nc1cc(Nc2nccc(-c3cn(C)c4ccccc34)n2)c(OC)cc1N(C)CCN(C)C
95.6% [middle of 4 runs]

Value lookup for viability, T/C; key = C=CC(=O)N1CCN(c2nc(OCC3CCCN3C)nc3c(F)c(-c4nc(N)cc(C)c4C(F)(F)F)c(Cl)cc23)C(C)C1 (stereo not given)
96.1% [middle of 12 runs]

Value lookup for viability, T/C; key = CCN1CCN(Cc2ccc(Nc3ncc(F)c(-c4cc(F)c5nc(C)n(C(C)C)c5c4)n3)nc2)CC1
98.7% [middle of 4 runs]

Value lookup for viability, T/C; key = CC(C)n1nc(-c2ccc3oc(N)nc3c2)c2c(N)ncnc21
69% [middle of 4 runs]

Value lookup for viability, T/C; key = O=C(c1ccc(F)c(F)c1Nc1ccc(I)cc1F)N1CC(O)([C@@H]2CCCCN2)C1
85.8% [middle of 4 runs]
